assay: qHTS screen for inhibitors of ELG1-dependent DNA repair in human embryonic kidney (HEK293T) cells expressing luciferase-tagged ELG1: MMS Viability Assay for probe SAR; settings: HEK293T ELG1-luc + MMS viability, CellTiter-Glo, 16 h; series mostly up to 46.1 µM
Inconclusive results are not listed. The source made the active and inactive calls. Calls come from the whole dose curve; as a rule, active = well fitted inhibition curve with a large enough effect; inconclusive = small, poorly fitted or top-dose-only effect; inactive = no such curve, though single readings can be large or run the other way.
reported-metric: Potency

These recorded examples may help you get a feel for the data.
[[record]]
entry_smiles = "COc1nccc(-c2nc(Nc3ccc(F)c(F)c3)c3ccccc3n2)c1Cl"
result = "inactive"

[[record]]
entry_smiles = "Oc1ccc(Nc2nc(-c3ccncc3)nc3ccccc23)cc1F"
result = "inactive"

[[record]]
entry_smiles = "O=[N+]([O-])c1ccc(-c2nc(Nc3ccc(F)c(F)c3)c3ccccc3n2)cc1"
result = "inactive"

[[record]]
entry_smiles = "Fc1cc(Nc2nc(-c3ccncc3)nc3ccccc23)ccc1-c1cncnc1"
result = "inactive"

[[record]]
entry_smiles = "Fc1ccc(Nc2nc(-c3ccnc(C(F)(F)F)c3)nc3ccccc23)cc1F"
result = "20.9 µM (active)"


Query string: // query Potency value for entry Fc1cc(Nc2nc(-c3ccncc3)nc3ccccc23)ccc1-c1ccc(F)c(F)c1F
Result string: inactive

Query string: Same question for Fc1cc(Nc2nc(-c3ccncc3)nc3ccccc23)ccc1-n1cncn1 please.
Result string: inactive

Query string: Same question for Fc1ccc(Nc2nc(-c3ccnc(N4CCCCC4)c3)nc3ccccc23)cc1F please.
Result string: inactive

Query string: Same question for Fc1cc(Nc2nc(-c3ccncc3)nc3ccccc23)ccc1-c1ccncc1 please.
Result string: inactive

Query string: Same question for COc1cnccc1-c1nc(Nc2ccc(F)c(F)c2)c2ccccc2n1 please.
Result string: 16.6 µM (active)

Query string: Same question for Fc1ccc(-c2ccc(Nc3nc(-c4ccncc4)nc4ccccc34)cc2F)c(F)c1 please.
Result string: 7.43 µM (active)

Query string: Same question for Fc1ccc(-c2ccc(Nc3nc(-c4ccncc4)nc4ccccc34)cc2F)c(Cl)c1 please.
Result string: 18.7 µM (active)

###

experiment: qHTS screen for inhibitors of ELG1-dependent DNA repair in human embryonic kidney (HEK293T) cells expressing luciferase-tagged ELG1: MMS Viability Assay for probe SAR; settings: HEK293T ELG1-luc + MMS viability, CellTiter-Glo, 16 h; series mostly up to 46.1 µM
Inconclusive results are not listed. The source made the active and inactive calls. Calls come from the whole dose curve; as a rule, active = well fitted inhibition curve with a large enough effect; inconclusive = small, poorly fitted or top-dose-only effect; inactive = no such curve, though single readings can be large or run the other way.
Select the correct class. Options are active, inactive and nothing else.

Query string: Name the outcome recorded for Fc1cc(Nc2nc(-c3ccncc3)nc3ccccc23)ccc1-c1cccc(OC(F)(F)F)c1 in the assay.
Result string: active

Query string: Same question for Fc1cc(Nc2nc(-c3ccncc3)nc3ccccc23)ccc1-c1cccc(C(F)(F)F)c1 please.
Result string: active

Query string: Same question for COc1cc(-c2nc(Nc3ccc(F)c(F)c3)c3ccccc3n2)c(F)cn1 please.
Result string: active

Query string: Same question for COC(=O)c1ccc(Nc2nc(-c3ccncc3)nc3ccccc23)cc1OC please.
Result string: inactive
